The entries below come with measured Activity values attached.
# assay protocol: Stability of compound in presence water assessed as pseudo-first order degradation rate constant at 10 uM at 20degC over 24 hrs
# Format: physicochemical
# condition label: buffer
readout kind: Activity (h⁻¹)

1) CO[C@H]1O[C@@H]2O[C@@]3(C)CC[C@H]4[C@H](C)CC[C@@H]([C@H]1C)[C@@]24OO3    0.002
2) C[C@H]1[C@@H](O)O[C@@H]2O[C@@]3(C)CC[C@H]4[C@H](C)CC[C@@H]1[C@@]24OO3    0.00001
3) O=C(O)C[C@H]1CC[C@]2(CC1)OO[C@]1(O2)C2CC3CC(C2)CC1C3    0.006
4) C[C@@H]1CC[C@H]2[C@@H](C)C(=O)O[C@@H]3O[C@@]4(C)CC[C@@H]1[C@]32OO4    0.0004
5) CC(C)(N)CNC(=O)C[C@H]1CC[C@]2(CC1)OO[C@]1(O2)C2CC3CC(C2)CC1C3    0.015

* * *

# assay protocol: Stability of compound in presence of […] assessed as pseudo-first order degradation rate constant at 10 uM at 20degC over 24 hrs
# Type: ADME
readout kind: Activity

1) O=C(O)C[C@H]1CC[C@]2(CC1)OO[C@]1(O2)C2CC3CC(C2)CC1C3    0.006 h⁻¹
2) CC(C)(N)CNC(=O)C[C@H]1CC[C@]2(CC1)OO[C@]1(O2)C2CC3CC(C2)CC1C3    0.013 h⁻¹
3) C[C@H]1[C@@H](O)O[C@@H]2O[C@@]3(C)CC[C@H]4[C@H](C)CC[C@@H]1[C@@]24OO3    0.004 h⁻¹
4) C[C@@H]1CC[C@H]2[C@@H](C)C(=O)O[C@@H]3O[C@@]4(C)CC[C@@H]1[C@]32OO4    0.003 h⁻¹
5) CO[C@H]1O[C@@H]2O[C@@]3(C)CC[C@H]4[C@H](C)CC[C@@H]([C@H]1C)[C@@]24OO3    0.002 h⁻¹

* * *

# assay protocol: Stability of compound in presence of oxyhemoglobin assessed as pseudo-first order degradation rate constant at 10 uM at 20degC over 24 hrs
# Type: ADME
readout kind: Activity (h⁻¹)

1. CC(C)(N)CNC(=O)C[C@H]1CC[C@]2(CC1)OO[C@]1(O2)C2CC3CC(C2)CC1C3    0.01
2. C[C@@H]1CC[C@H]2[C@@H](C)C(=O)O[C@@H]3O[C@@]4(C)CC[C@@H]1[C@]32OO4    0.008
3. C[C@H]1[C@@H](O)O[C@@H]2O[C@@]3(C)CC[C@H]4[C@H](C)CC[C@@H]1[C@@]24OO3    0.017
4. CO[C@H]1O[C@@H]2O[C@@]3(C)CC[C@H]4[C@H](C)CC[C@@H]([C@H]1C)[C@@]24OO3    0.007
5. O=C(O)C[C@H]1CC[C@]2(CC1)OO[C@]1(O2)C2CC3CC(C2)CC1C3    0.01
